# TEST: non-covalent RecA intein splicing inhibitors, dose response, biochemical, cell-free, fluorescence, secondary screen (AID 449750)
Activity calls are given as the source filed them. How the calls were made is not given here.
Lab note: assign the record to one of active, inactive

Check out these entries, answers already filled in.
{"MOLECULE": "Cc1cc(=O)n(-c2ccc(C(=O)O)cc2)[nH]1", "LABEL CLASS": "active"}
{"MOLECULE": "Cc1ccc(C2CC(c3cccs3)=NN2C(=O)CSC2=NCCS2)cc1 (stereo unspecified)", "LABEL CLASS": "active"}
{"MOLECULE": "COc1ccc(-c2c(=O)n(OC)c3ccccc3[n+]2[O-])cc1OC", "LABEL CLASS": "inactive"}
{"MOLECULE": "COc1ccc(CNc2ccc3cn[nH]c3c2)c(OC)c1OC", "LABEL CLASS": "active"}
{"MOLECULE": "CCOC(=O)c1c(C)oc2c1c(C=NCCC(=O)O)c(O)c1ccccc12", "LABEL CLASS": "active"}

Recorded test call requested for O=C(CSc1ncnc2c1nnn2Cc1ccccc1F)N1CCN(c2ccccc2)CC1 inactive

* * *

# TEST: non-covalent RecA intein splicing inhibitors, dose response, biochemical, cell-free, fluorescence, secondary screen (AID 449750)
Activity calls are given as the source filed them. How the calls were made is not given here.
Write down the outcome that applies. Available outcomes: label 1 (active), label 0 (inactive)

Before answering, review these 3 worked examples.
{"SMILES STRING": "CC(C)=CCC1=C(OCC(=O)O)C(=O)c2ccccc2C1=O", "LABEL CLASS": "label 1"}
{"SMILES STRING": "[O-]C1=N/[N+](=C/c2ccccc2Cl)CC1", "LABEL CLASS": "label 0"}
{"SMILES STRING": "Cc1onc(-c2ccccc2)c1-c1nc2cc(Cl)ccc2c(=O)o1", "LABEL CLASS": "label 0"}

Continue with the molecule presented below.
# outcome recorded in this test, key = O=C(CSc1nc2ccccc2nc1SCC(=O)N1CCOCC1)N1CCOCC1 label 0

* * *

# TEST: non-covalent RecA intein splicing inhibitors, dose response, biochemical, cell-free, fluorescence, secondary screen (AID 449750)
Activity calls are given as the source filed them. No rule for the calls is given here.
Classes to choose from: active, inactive

Study these solved cases before continuing.
{"COMPOUND": "Cn1[nH]c(CSc2ccc(Cl)cc2)cc1=O", "LABEL CLASS": "active"}
{"COMPOUND": "CC(C)(C)c1ccc(C(=O)Cn2cnnc2C#N)cc1", "LABEL CLASS": "inactive"}
{"COMPOUND": "Cc1ccc2c(c1)-c1c(ssc1=S)C(C)(C)N2C(=O)CSC1=NCCS1", "LABEL CLASS": "active"}

// next entry
// return assay outcome for COc1cc(NC(C)CCCN)c2ncccc2c1 (centres undefined) active

* * *

# TEST: non-covalent RecA intein splicing inhibitors, dose response, biochemical, cell-free, fluorescence, secondary screen (AID 449750)
Calls of active or inactive are those of the source. The rule behind the calls is not given here.
// one of yes (1) for active, no (0) for inactive, no free text

Some solved entries appear below for comparison.
{"MOLECULE": "Cn1cnc([N+](=O)[O-])c1S(=O)(=O)c1ccc(Cl)cc1", "LABEL CLASS": "no (0)"}
{"MOLECULE": "O=C(CCl)Oc1ccc2occ(C(=O)c3cccs3)c2c1", "LABEL CLASS": "no (0)"}
{"MOLECULE": "Oc1c(C=NCc2ccc(F)cc2)[nH]c2ccc(Br)c(Cl)c12", "LABEL CLASS": "yes (1)"}

Hello, I am checking results. What call was entered for O=C(CCl)N(Cc1cc(=O)[nH]c2ccccc12)c1ccccc1 ? yes (1)

How did this test come out for Clc1ccc(Sc2oc(/C=N/n3cnnc3)cc2Br)cc1 ? no (0)

# lookup: test call for COc1cc(Br)c(C2C(C#N)=C(N)Oc3n[nH]c(-c4cccnc4)c32)cc1OC (centres undefined) yes (1)

Lab log entry: O=C1/C(=C\c2cccc(O)c2O)SC(=S)N1Cc1ccccc1 — outcome as called in the assay? no (0)

Which outcome was assigned to Cn1c(SCC(=O)NCC2CCCO2)ncc(C(=O)Nc2ccc(F)cc2)c1=O (centres undefined) in this test? yes (1)

What was the test verdict on FC(F)(F)c1ccc(C2[C@H]3CN(Cc4cccnc4)[C@H](c4ccccc4)C34CC2(c2cccnc2)C4)cc1 (some centres undefined) ? yes (1)
